experiment: Equilibrium solubility of EV‐P in injectable oily vehicles (HPLC); type: physicochemical; details: oil or lipid, thermodynamic from solid; in cotton seed oil; 25°C, stored over 3 days; mean ± SD (n = 3)
assay_endpoint: solubility at 3 days
Quick note: unit goes after the number.

Prompt: Quick one: solubility at 3 days of C=C1[C@H](COC(=O)CCCCCCCCCCCCCCC)[C@@H](O)C[C@@H]1n1cnc2c(=O)[nH]c(N)nc21 [EV‐P] ?
Completion: 980 µg/mL

---

assay: Equilibrium solubility of EV‐P in injectable oily vehicles (HPLC); type: physicochemical; settings: oil or lipid, thermodynamic from solid; in Labrafac PG; 25°C, stored over 3 days; mean ± SD (n = 3)
assay_endpoint: solubility at 3 days (µg/mL)
Provide only the numeric value, understood in µg/mL.

Prompt: Query (molecule): C=C1[C@H](COC(=O)CCCCCCCCCCCCCCC)[C@@H](O)C[C@@H]1n1cnc2c(=O)[nH]c(N)nc21 [EV‐P] ; field requested: solubility at 3 days
Completion: 110
